# measured.on: 3-hydroxy-3-methylglutaryl-coenzyme A reductase (Cricetulus griseus, UniProt P00347)
# Sequence (P00347 whole entry): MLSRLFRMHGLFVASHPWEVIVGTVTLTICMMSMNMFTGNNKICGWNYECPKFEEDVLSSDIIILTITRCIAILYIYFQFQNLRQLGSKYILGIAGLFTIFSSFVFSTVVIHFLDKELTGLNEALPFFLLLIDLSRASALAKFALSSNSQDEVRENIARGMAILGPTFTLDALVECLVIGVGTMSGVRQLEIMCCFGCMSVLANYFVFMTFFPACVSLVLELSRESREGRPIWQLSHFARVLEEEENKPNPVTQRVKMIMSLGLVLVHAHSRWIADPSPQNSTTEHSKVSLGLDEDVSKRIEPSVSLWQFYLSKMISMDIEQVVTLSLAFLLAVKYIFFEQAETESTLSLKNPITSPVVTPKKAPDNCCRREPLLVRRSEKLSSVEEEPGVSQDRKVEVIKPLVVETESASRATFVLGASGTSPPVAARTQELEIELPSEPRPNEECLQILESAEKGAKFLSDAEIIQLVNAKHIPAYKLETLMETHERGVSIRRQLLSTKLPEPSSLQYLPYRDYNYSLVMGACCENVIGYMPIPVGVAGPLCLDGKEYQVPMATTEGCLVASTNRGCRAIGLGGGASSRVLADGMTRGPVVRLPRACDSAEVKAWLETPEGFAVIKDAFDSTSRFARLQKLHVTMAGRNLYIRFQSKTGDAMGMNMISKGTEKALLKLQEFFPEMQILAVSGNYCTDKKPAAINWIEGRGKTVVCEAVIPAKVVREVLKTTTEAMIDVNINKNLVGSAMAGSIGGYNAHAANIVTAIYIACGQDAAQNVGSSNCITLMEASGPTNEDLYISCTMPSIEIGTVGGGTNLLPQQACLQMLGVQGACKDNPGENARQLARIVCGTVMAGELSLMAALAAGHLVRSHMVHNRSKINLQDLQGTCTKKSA
# test.summary: Induction of HMGCR degradation in CHO-7 cells incubated for 16 hrs by immunoblotting assay
# Assay type: cell-based
observable: EC50 (µM)
Give the value, in units of µM, as a plain number.

Q: Notebook: pull reported EC50 for 3-hydroxy-3-methylglutaryl-coenzyme A reductase (Cricetulus griseus, UniProt P00347), entry `C=CCC(O)(CC=C)CCC[C@@H](C)[C@H]1CC[C@H]2[C@@H]3[C@@H](O)C=C4C(C)(C)[C@@H](O)CC[C@]4(C)[C@H]3CC[C@]12C`
Ans: 0.39

====

# measured.on: 3-hydroxy-3-methylglutaryl-coenzyme A reductase (Homo sapiens, UniProt P04035)
# Sequence (P04035 whole entry): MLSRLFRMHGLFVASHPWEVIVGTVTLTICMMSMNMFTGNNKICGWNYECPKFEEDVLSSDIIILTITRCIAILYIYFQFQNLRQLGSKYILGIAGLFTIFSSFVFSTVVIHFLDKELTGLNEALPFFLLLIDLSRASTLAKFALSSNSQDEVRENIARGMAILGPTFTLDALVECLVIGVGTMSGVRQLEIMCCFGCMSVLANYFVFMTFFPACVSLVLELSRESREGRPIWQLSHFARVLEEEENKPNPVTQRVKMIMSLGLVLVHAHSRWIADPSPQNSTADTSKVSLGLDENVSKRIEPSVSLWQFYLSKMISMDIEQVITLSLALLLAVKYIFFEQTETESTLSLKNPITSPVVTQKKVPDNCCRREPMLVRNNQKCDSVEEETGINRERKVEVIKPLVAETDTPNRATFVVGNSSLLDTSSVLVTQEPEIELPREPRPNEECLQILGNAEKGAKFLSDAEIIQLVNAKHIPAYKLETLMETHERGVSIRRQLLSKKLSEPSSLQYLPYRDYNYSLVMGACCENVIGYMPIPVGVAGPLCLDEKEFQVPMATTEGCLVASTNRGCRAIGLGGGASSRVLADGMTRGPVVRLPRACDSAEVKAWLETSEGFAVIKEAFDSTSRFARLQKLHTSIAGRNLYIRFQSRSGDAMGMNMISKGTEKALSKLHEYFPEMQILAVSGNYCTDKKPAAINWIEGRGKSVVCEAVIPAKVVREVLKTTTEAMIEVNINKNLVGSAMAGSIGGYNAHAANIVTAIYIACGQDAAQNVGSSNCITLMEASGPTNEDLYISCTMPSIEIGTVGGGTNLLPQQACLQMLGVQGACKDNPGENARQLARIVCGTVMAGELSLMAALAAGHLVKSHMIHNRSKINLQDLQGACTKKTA
# test.summary: Induction of HMGCR degradation in HEK293 cells incubated for 4 hrs by luciferase based assay
# Assay type: cell-based
observable: log10(EC50) (log10 of the value in nM)
Parameter value (number): base-10 log of EC50 in nM.

[[record]]
molecule = "CC(C)OP(=O)(OC(C)C)C(Cc1cc(C(C)(C)C)nc2ccccc12)P(=O)(OC(C)C)OC(C)C"
readout_number = 3.16

[[record]]
molecule = "CCC(C)(C)c1cc(CC(P(=O)(OC(C)C)OC(C)C)P(=O)(OC(C)C)OC(C)C)cc(C(C)(C)C)n1"
readout_number = 2.18

[[record]]
molecule = "CCOP(=O)(OCC)C(Cc1cc(C(C)(C)C)nc(C(C)(C)C)c1)P(=O)(OCC)OCC"
readout_number = 2.53

[[record]]
molecule = "CC(C)OP(=O)(OC(C)C)C(Cc1cc(C(C)(C)C)nc(C23CC4CC(CC(C4)C2)C3)c1)P(=O)(OC(C)C)OC(C)C"
readout_number = 3.35

[[record]]
molecule = "CCC(C)(C)c1cc(CC(P(=O)(OC(C)C)OC(C)C)P(=O)(OC(C)C)OC(C)C)cc(C(C)(C)CC)n1"
readout_number = 1.99

[[record]]
molecule = "CC(C)OP(=O)(OC(C)C)C(Cc1cc(C(C)(C)CF)nc(C(C)(C)CF)c1)P(=O)(OC(C)C)OC(C)C"
readout_number = 1.93


Q: Notebook: pull reported log10(EC50) for 3-hydroxy-3-methylglutaryl-coenzyme A reductase (Homo sapiens, UniProt P04035), entry `CCC(CF)(CF)c1cc(CC(P(=O)(OC(C)C)OC(C)C)P(=O)(OC(C)C)OC(C)C)cc(C(CC)(CF)CF)n1`
Ans: 2.55

Q: // repeat for `CC(C)OP(=O)(OC(C)C)C(Cc1cc(Cc2ccccc2)nc(C(C)(C)C)c1)P(=O)(OC(C)C)OC(C)C` and report
Ans: 2.94

Q: // repeat for `CC(C)OP(=O)(OC(C)C)C(Cc1cc(C(C)(C)C)nc(C(C)(C)CF)c1)P(=O)(OC(C)C)OC(C)C` and report
Ans: 1.99

Q: // repeat for `CC(C)OP(=O)(OC(C)C)C(Cc1cc(C2CCCCC2)nc(C(C)(C)C)c1)P(=O)(OC(C)C)OC(C)C` and report
Ans: 2.78

Q: // repeat for `CC(C)OP(=O)(OC(C)C)C(Cc1cc(C(C)(C)C)nc(C(C)(C)CO)c1)P(=O)(OC(C)C)OC(C)C` and report
Ans: 2.59

Q: // repeat for `CC(C)OP(=O)(OC(C)C)C(Cc1cc(C(C)C)nc(C(C)(C)C)c1)P(=O)(OC(C)C)OC(C)C` and report
Ans: 2.55

Q: // repeat for `CC(C)OP(=O)(OC(C)C)C(Cc1cc(C(C)(C)C)nc(C(C)(C)C)n1)P(=O)(OC(C)C)OC(C)C` and report
Ans: 2.65

Q: // repeat for `CCC(CC)c1cc(CC(P(=O)(OC(C)C)OC(C)C)P(=O)(OC(C)C)OC(C)C)cc(C(C)(C)C)n1` and report
Ans: 2.86

Q: // repeat for `CC(C)OP(=O)(OC(C)C)C(Cc1cc(C(C)(C)C)nc(C(C)(C)C)c1)P(=O)(OC(C)C)OC(C)C` and report
Ans: 2.12

Q: // repeat for CCCCC(CC)c1cc(CC(P(=O)(OC(C)C)OC(C)C)P(=O)(OC(C)C)OC(C)C)cc(C(C)(C)C)n1 (configuration not stated) and report
Ans: 3.00

Q: // repeat for `COCOCC(C)(C)c1cc(CC(P(=O)(OC(C)C)OC(C)C)P(=O)(OC(C)C)OC(C)C)cc(C(C)(C)C)n1` and report
Ans: 2.69

Q: // repeat for `CCCC(C)(C)c1cc(CC(P(=O)(OC(C)C)OC(C)C)P(=O)(OC(C)C)OC(C)C)cc(C(C)(C)C)n1` and report
Ans: 2.53

Q: // repeat for `CCC(CF)(CF)c1cc(CC(P(=O)(OC(C)C)OC(C)C)P(=O)(OC(C)C)OC(C)C)cc(C(C)(C)C)n1` and report
Ans: 2.01

Q: // repeat for `CC(C)OP(=O)(OC(C)C)C(Cc1cc(C(C)(C)C)cc(C(C)(C)C)n1)P(=O)(OC(C)C)OC(C)C` and report
Ans: 2.84

Q: // repeat for `CC(C)OP(=O)(OC(C)C)C(Cc1cc(C(C)(C)C)nc(C(C)(C)COCc2ccccc2)c1)P(=O)(OC(C)C)OC(C)C` and report
Ans: 2.49

Q: // repeat for `CCCOP(=O)(OCCC)C(Cc1cc(C(C)(C)C)nc(C(C)(C)C)c1)P(=O)(OCCC)OCCC` and report
Ans: 2.92
